Values compiled from patent US9193697B2.

Catalogue of molecules with associated IC50
Biological target: human FAAH (Fatty Acid Amide Hydrolase) (Homo sapiens (Human))
Sequence (O00519 whole entry): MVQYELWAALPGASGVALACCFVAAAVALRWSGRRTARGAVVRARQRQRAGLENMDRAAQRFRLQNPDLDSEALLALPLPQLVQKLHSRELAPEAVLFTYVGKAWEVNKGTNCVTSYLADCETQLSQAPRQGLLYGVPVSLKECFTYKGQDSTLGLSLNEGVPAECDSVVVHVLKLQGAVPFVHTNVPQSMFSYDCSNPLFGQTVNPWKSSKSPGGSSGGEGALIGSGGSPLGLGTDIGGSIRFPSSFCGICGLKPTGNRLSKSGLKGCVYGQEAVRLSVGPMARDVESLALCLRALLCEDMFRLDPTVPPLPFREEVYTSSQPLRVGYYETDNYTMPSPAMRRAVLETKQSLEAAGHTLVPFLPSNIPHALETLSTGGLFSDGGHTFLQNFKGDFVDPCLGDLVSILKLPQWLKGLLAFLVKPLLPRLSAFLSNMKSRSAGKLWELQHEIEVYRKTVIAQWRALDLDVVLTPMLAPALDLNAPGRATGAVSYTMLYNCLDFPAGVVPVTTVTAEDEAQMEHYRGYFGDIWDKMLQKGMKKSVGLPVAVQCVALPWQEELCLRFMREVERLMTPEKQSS
Assay: FAAH inhibition, human FAAH CHO whole cell format
Type: cell-based

As a guide, the following entries are already answered.
molecule	IC50
CC(C)(O)c1ccc(-c2nc(C3CCOCC3)oc2Sc2ccc(Cl)cn2)cn1	314 nM
CC(C)(O)c1ccc(-c2nc(C3CCOCC3)oc2Sc2ccc(C3CC3)cn2)cn1	4140 nM
CCOC(=O)N1CCC(c2nc(C3CCOCC3)oc2Sc2ccc(Cl)cn2)CC1	150 nM
Clc1ccc(Sc2oc(C3CCOCC3)nc2-c2cnn(CC3OCCO3)c2)cc1	1050 nM
C[S+]([O-])c1ccc(-c2nc(C3CCN(C(=O)OCCN4CCOCC4)CC3)oc2Sc2ccc(Cl)cn2)cc1 (centres unmarked)	5010 nM
CC(C)(O)c1ccc(-c2nc(C3CCOCC3)oc2Sc2ccc(F)cn2)cn1	4250 nM

Prompt: Report IC50 for `O=C(c1ccc(-c2nc(C3CCOCC3)oc2Sc2ccc(Cl)cc2)cn1)N1CCOCC1` please.
Completion: ≥ 10000 nM

Prompt: Query (molecule): `COC(=O)[C@H]1CC[C@H](c2nc(-c3ccc(C(C)(C)O)nc3)c(Sc3ccc(Cl)cc3)o2)CC1` ; field requested: IC50
Completion: 9.5 nM

Prompt: Returns the measured IC50 for the input molecule. Input: `COCCOC(=O)N1CCC(c2nc(C3CCOCC3)oc2Sc2ccc(Cl)cn2)CC1`
Completion: ≥ 10000 nM

Prompt: Please look up its IC50: `O=C(c1ccc(-c2nc(C3CCOCC3)oc2Sc2ccc(Cl)cc2)cc1)N1CCC(O)CC1`
Completion: 2670 nM

Prompt: Need IC50 of CC(=O)N1CCC(c2nc(-c3ccc([S+](C)[O-])cc3)c(Sc3ccc(Cl)cn3)o2)CC1 (centres unmarked) , thanks.
Completion: 4420 nM

Prompt: Consider the molecule `CC(C)(O)c1ccc(-c2nc([C@H]3CC[C@@H](CO)CC3)oc2Sc2ccc(Cl)cc2)cn1` and give its measured IC50.
Completion: 63.8 nM

Prompt: Item `CC(C)OC(=O)N1CCC(c2nc(C3CCOCC3)oc2Sc2ccc(Cl)cn2)CC1` has what recorded IC50?
Completion: 1920 nM

Prompt: Entry `COC(=O)Cn1cc(-c2nc(C3CCOCC3)oc2Sc2ccc(Cl)cc2)cn1` has what IC50?
Completion: 847 nM

Prompt: For the molecule `CC(C)(O)c1ccc(-c2nc(C3CCOCC3)oc2Sc2ccccc2Cl)cn1` , what IC50 is on record?
Completion: ≥ 10000 nM

Prompt: Query (molecule): `O=S1(=O)CCN(c2ccc(-c3nc(C4CCOCC4)oc3Sc3ccc(Cl)cc3)cc2)CC1` ; field requested: IC50
Completion: 40.3 nM

Prompt: Please report the recorded IC50 for CN1CCN(CCOC(=O)N2CCC(c3nc(-c4ccc([S+](C)[O-])cc4)c(Sc4ccc(Cl)cn4)o3)CC2)CC1 (centres unmarked) .
Completion: ≥ 10000 nM

Prompt: Field request: IC50 | item: `COC(=O)N1CCC(c2nc(C3CCOCC3)oc2Sc2ccc(Cl)cn2)CC1`
Completion: 142 nM
